Test system: HIV-1 (Ba-L or IIIB) infection of HOS cell line (expressing hCXCR4/hCCR5/hCD4/pHIV-LTR-luciferase)
Assay: HOS HIV-1 Infectivity Assay
Assay type: cell-based
Conditions: Human immunodeficiency virus 1, HOS, virus strain not given, read-out: Activity Level
measuredMetric: IC50

The cases that follow already have their IC50 on record.
smilesStr	IC50
CCN1CCN(c2cccc3nc(CN(C)[C@H]4CCCc5cccnc54)c(Cl)n23)CC1	< 100 nM
CC(C)N(Cc1nc2cccc(N3CCC(N(C)C)CC3)n2c1C(N)=O)[C@H]1CCCc2cccnc21	< 100 nM
CN(C)[C@@H]1CCN(c2cccc3nc(CN(C)[C@H]4CCCc5cccnc54)c(Cl)n23)C1	< 100 nM
CN1CCN(c2cccc3nc(CN(C)[C@H]4CCCc5cccnc54)c(C#N)n23)CC1	< 100 nM
CCN(Cc1nc2cccc(N3CCC(N(C)C)CC3)n2c1C#N)[C@H]1CCCc2cccnc21	< 100 nM
CCN(Cc1nc2cccc(N3CC[C@@H](N(C)C)C3)n2c1C(N)=O)[C@H]1CCCc2cccnc21	< 100 nM
CN(C)C1CCN(c2cccc3nc(CN(C)[C@H]4CCCc5cccnc54)c(C#N)n23)CC1	< 100 nM
CCCN(Cc1cn2c(N3CCN(C)CC3)ccc(F)c2n1)[C@H]1CCCc2cccnc21	< 100 nM

Reported IC50, compound CN1CCN(c2cccc3nc(CN(C)[C@H]4CCCc5cccnc54)c(C(N)=O)n23)CC1 : ____
< 100 nM

Reported IC50, compound CCCN(Cc1nc2cccc(N3CCC(N(C)C)CC3)n2c1Cl)[C@H]1CCCc2cccnc21 : ____
< 100 nM

Reported IC50, compound CCCN(Cc1nc2cccc(N3CCC(N(C)C)CC3)n2c1C(N)=O)[C@H]1CCCc2cccnc21 : ____
< 100 nM

Reported IC50, compound CN(C)C1CCN(c2cccc3nc(CN(C)[C@H]4CCCc5cccnc54)c(C(N)=O)n23)CC1 : ____
< 100 nM

Reported IC50, compound CC(C)N(Cc1nc2cccc(N3CCC(N(C)C)CC3)n2c1C#N)[C@H]1CCCc2cccnc21 : ____
< 100 nM

Reported IC50, compound CN(C)C1CCN(c2cccc3nc(CN(C)[C@H]4CCCc5cccnc54)c(Cl)n23)CC1 : ____
< 100 nM

Reported IC50, compound CN(C)[C@@H]1CCN(c2cccc3nc(CN(Cc4ccccc4)[C@H]4CCCc5cccnc54)c(C#N)n23)C1 : ____
< 100 nM

Reported IC50, compound CC(=O)c1c(CN(C)[C@H]2CCCc3cccnc32)nc2cccc(N3CCN(C)CC3)n12 : ____
< 100 nM
